- Test system: L1210 leukemia ip in BDF1 mice, survival T/C
- experimental protocol: NCI In Vivo Anticancer Drug Screen. Data for tumor model L1210 Leukemia (intraperitoneal) in B6D2F1 (BDF1) mice
- test settings: endpoint: mean survival time; dose: 50.0 mg/kg/injection; schedule: Q01DX009 (ip); vehicle: Klucel (hydroxypropylcellulose) (HPC)
Toxic doses and inconclusive results are not listed. Rule as the data show it: active = T/C of 150% or more; inactive = T/C below 125%.
Returns: one label drawn from y for active, n for inactive

COc1ccccc1C(C)=O ... n

Short answer needed: outcome of this test for NCC12CC3CC(CC(C3)C1)C2 ?
n

Short answer needed: outcome of this test for OC(C/C=C/c1ccccc1)c1ccccc1 (centres undefined) ?
n

Short answer needed: outcome of this test for CC(=O)CCCC(C)C1CCC2[C@H]3CC=C4C[C@H](O)CC[C@@]4(C)C3CC[C@@]12C (some centres undefined) ?
n

Short answer needed: outcome of this test for CN(Cc1ccc(Cl)cc1)C(=O)Nc1cccc(C(F)(F)F)c1 ?
n

Short answer needed: outcome of this test for CC(=O)OC1=NC(C)c2c1cc(OC(C)=O)[nH]c2=O (centres undefined) ?
n

Short answer needed: outcome of this test for Cc1c(C(=O)CCl)c(=O)n(-c2ccccc2)n1C ?
n

Short answer needed: outcome of this test for Cc1ccc(NC(=O)NCCCl)cc1NC(=O)NCCCl ?
n

Short answer needed: outcome of this test for O=NN(CCCl)C(=O)NC1c2cc(Cl)ccc2-c2c(Cl)cc(Cl)cc21 (centres undefined) ?
y

Short answer needed: outcome of this test for CC(=O)NN(c1ccc([N+](=O)[O-])cc1)c1ccc([N+](=O)[O-])cc1 ?
n

Short answer needed: outcome of this test for CC(=O)Oc1c2c(c(CC=C(C)C)c3c1C(=O)C1=CC4CC5C(C)(C)OC(C/C=C(/C)C(=O)O)(C4=O)C15O3)OC(C)(CCC=C(C)C)C=C2 (centres undefined) ?
n

Short answer needed: outcome of this test for CCOC(=O)C(NC(=O)CCl)C(=O)OCC ?
n

Short answer needed: outcome of this test for NC(Cc1ccc(O)cc1)C(=O)N/N=C/c1ccc(N(CCCl)CCCl)cc1 (centres undefined) ?
n

Short answer needed: outcome of this test for CN1CN(c2ccccc2)CSC1=S ?
n

Short answer needed: outcome of this test for O=c1cc(-c2ccccc2)oc(-c2ccc(Cl)cc2)c1 ?
n

Short answer needed: outcome of this test for CCN(CC)CCCC#CCN1CCCC1 ?
n

Short answer needed: outcome of this test for Nc1ncncc1-c1ccccc1[N+](=O)[O-] ?
n

Short answer needed: outcome of this test for CCN(CC)CCOC(=O)C1CC1(c1ccccc1)c1ccccc1 (centres undefined) ?
n

Short answer needed: outcome of this test for COc1ccc2c(c1)sc1ncnc(N)c12 ?
n

---

- Tested on: L1210 leukemia ip in BDF1 mice, survival T/C
- experimental protocol: NCI In Vivo Anticancer Drug Screen. Data for tumor model L1210 Leukemia (intraperitoneal) in B6D2F1 (BDF1) mice
- test settings: endpoint: mean survival time; dose: 400.0 mg/kg/injection; schedule: Q01DX009 (ip); vehicle: saline with Tween-80; higher = longer survival
Toxic doses and inconclusive results are not listed.
measured endpoint: T/C

What value of T/C has been reported for the following compound? CCCCNC(=O)CC(C)C(=O)O (configuration not stated)
100 % of control

What value of T/C has been reported for the following compound? Cc1ccc(S(=O)(=O)Nc2ccc3nc(C)oc3c2)cc1
93 % of control

What value of T/C has been reported for the following compound? COC(=O)C1(C)CCCC2(C)C1CCC13C=C(C(C)C)C(CC1C(=O)O)CC23 (configuration not stated)
87 % of control

What value of T/C has been reported for the following compound? Cc1cccc(Cl)c1NC(=O)Nc1cccc(O)c1
97 % of control

What value of T/C has been reported for the following compound? Cc1ccc(NS(=O)(=O)c2ccc([N+](=O)[O-])cc2)c(C)c1
98 % of control

What value of T/C has been reported for the following compound? CCCCCCC(C)O[Si](C)c1ccc(-c2ccccc2)cc1 (configuration not stated)
102 % of control

What value of T/C has been reported for the following compound? CC(=O)COc1ccc(Cl)cc1Cl
92 % of control

What value of T/C has been reported for the following compound? Cc1cccc2c1CCC(OC(=O)c1cc([N+](=O)[O-])cc([N+](=O)[O-])c1)C2 (configuration not stated)
95 % of control

What value of T/C has been reported for the following compound? COc1ccc(C(=Cc2ccccc2Br)c2ccc(OC)cc2)cc1
93 % of control

What value of T/C has been reported for the following compound? CCCCCSC(=O)C(N)=O
96 % of control

What value of T/C has been reported for the following compound? O=C1CSCc2nc3ccccc3n21
100 % of control

What value of T/C has been reported for the following compound? CC(=O)Oc1ccc(OC(C)=O)c2c1C(=O)CCCC2=O
96 % of control
